test system: HIV-IIIb (MT-4 cells); experiment: Test A: Antiviral Assays in MT4 Cells; type: cell-based; conditions: Human immunodeficiency virus 1, IIIB, MT4, 120 h, MT-4 cells infected with HIV-IIIb (0.004 m.o.i.), 5 days incubation, CellTiter-Glo readout; read-out: EC50
experimental-readout: pEC50
pEC50 field: float, defined as -log10 of concentration (mol/L).

Query: Need pEC50 of Cc1cc2nc(C#CC3CC3)sc2c(-c2ccc(Cl)cc2)c1[C@H](OC(C)(C)C)C(=O)O [Compound 14] , thanks.
Reply: 6.14

***
Query: Look up pEC50: Cc1cc2nc(N(C)CC(=O)N(C)C)sc2c(-c2ccc3c4c(ccnc24)CCO3)c1[C@H](OC(C)(C)C)C(=O)O (atropisomer, axis not shown) [Compound 64]
Reply: 4.28

Query: Using the record for Cc1cc2nc(C(F)F)sc2c(-c2ccc3c4c(ccnc24)CCO3)c1[C@H](OC(C)(C)C)C(=O)O (atropisomer, axis not shown) [Compound 92] , report its pEC50.
Reply: 6.45

---

Entries and their pEC50 values follow.
system: HIV-IIIb (MT-4 cells); assay: Test A: Antiviral Assays in MT4 Cells; assay type: cell-based; details: Human immunodeficiency virus 1, IIIB, MT4, 120 h, MT-4 cells infected with HIV-IIIb (0.004 m.o.i.), 5 days incubation, CellTiter-Glo readout; read-out: EC50
Here pEC50 is given on a logarithmic scale as minus log10 of the concentration in mol/L.

Query: Which measured pEC50 value corresponds to Cc1cc2c(sc(=O)n2Cc2ccc(C(F)(F)F)cc2)c(-c2ccc3c4c(ccnc24)CCO3)c1[C@H](OC(C)(C)C)C(=O)O (atropisomer, axis not shown) ?
Reply: 6.19

***
Query: So what does the record say about pEC50 for CC(=O)Nc1nc2cc(C)c([C@H](OC(C)(C)C)C(=O)O)c(-c3ccc4c5c(ccnc35)CCO4)c2s1 (atropisomer, axis not shown) ?
Reply: 5.85

Query: Reported pEC50 for "Cc1cc2nc(CC(C)C)sc2c(-c2ccccc2)c1[C@H](OC(C)(C)C)C(=O)O" : what is it?
Reply: 6.19

Query: pEC50; subject: Cc1cc2nc(C(=O)O)sc2c(-c2ccc3c4c(ccnc24)CCO3)c1[C@H](OC(C)(C)C)C(=O)O (atropisomer, axis not shown)
Reply: 6.03

Query: What measured pEC50 goes with COc1nc2cc(C)c([C@H](OC(C)(C)C)C(=O)O)c(-c3ccc4c5c(ccnc35)CCO4)c2s1 (atropisomer, axis not shown) ?
Reply: 7.65

---

tested on: HIV-IIIb (MT-4 cells); test: Test A: Antiviral Assays in MT4 Cells; assay type: cell-based; conditions: Human immunodeficiency virus 1, IIIB, MT4, 120 h, MT-4 cells infected with HIV-IIIb (0.004 m.o.i.), 5 days incubation, CellTiter-Glo readout; read-out: EC50
experimental-readout: EC50 (µM)
Please reply with the bare figure in µM and do not write the unit itself.

Answered examples (2):
Query: What does the data say about its EC50? Entry: Cc1cc2nc(C3CCC3)sc2c(-c2ccc3c4c(ccnc24)CCO3)c1[C@H](OC(C)(C)C)C(=O)O (atropisomer, axis not shown)
Reply: 0.0402

Query: Give the measured EC50 of Cc1cc2nc(C(C)C)sc2c(-c2ccc3c4c(ccnc24)CCO3)c1[C@H](OC(C)(C)C)C(=O)O (atropisomer, axis not shown) .
Reply: 0.0133

Continuing:
Query: Can you share its EC50? I mean this molecule: Cc1cc2c(sc(=O)n2Cc2ccccc2)c(-c2ccc3c4c(ccnc24)CCO3)c1[C@H](OC(C)(C)C)C(=O)O (atropisomer, axis not shown)
Reply: 0.0298

Query: I have this molecule here, Cc1cc2c(sc(=O)n2C)c(-c2ccc3c4c(ccnc24)CCO3)c1[C@H](OC(C)(C)C)C(=O)O (atropisomer, axis not shown) , and I need its recorded EC50.
Reply: 0.292

Ref: patent US9879023B2
